Assay protocol: Competitive slurries of Pattern 3 and Pattern 11, XRPD
Type: physicochemical
Measurement setup: competitive slurry, 20 vol; solvent and temperature per sample
Measure: XRPD after 7 days

Illustrative cases are given below, each with its answer.
                                   compound             result
0  Cc1cc(Nc2cc(N)ncn2)c(=O)n2c1C(=O)NC21CCC2(CC2)CC1 [Pattern 36-8]  Patterns 3 and 11
1  Cc1cc(Nc2cc(N)ncn2)c(=O)n2c1C(=O)NC21CCC2(CC2)CC1 [Pattern 36-6]         Pattern 11
2  Cc1cc(Nc2cc(N)ncn2)c(=O)n2c1C(=O)NC21CCC2(CC2)CC1 [Pattern 36-2]         Pattern 11
3  Cc1cc(Nc2cc(N)ncn2)c(=O)n2c1C(=O)NC21CCC2(CC2)CC1 [Pattern 36-4]         Pattern 11
4  Cc1cc(Nc2cc(N)ncn2)c(=O)n2c1C(=O)NC21CCC2(CC2)CC1 [Pattern 36-7]         Pattern 11
5  Cc1cc(Nc2cc(N)ncn2)c(=O)n2c1C(=O)NC21CCC2(CC2)CC1 [Pattern 36-10]  Patterns 3 and 11
6  Cc1cc(Nc2cc(N)ncn2)c(=O)n2c1C(=O)NC21CCC2(CC2)CC1 [Pattern 36-15]  Patterns 3 and 11

Attention now turns to another entry.
// lookup XRPD after 7 days for Cc1cc(Nc2cc(N)ncn2)c(=O)n2c1C(=O)NC21CCC2(CC2)CC1 [Pattern 36-5]
Pattern 11

====

Assay protocol: Gravimetric solubility measurements from competitive slurry samples
Assay type: physicochemical
Measurement setup: organic solvent or mixture, thermodynamic from solid; THF/Water (9:1), room temperature
Measure: solubility (µg/mL)
Numeric answer only, unit µg/mL assumed.

Data request, read-out solubility, for `Cc1cc(Nc2cc(N)ncn2)c(=O)n2c1C(=O)NC21CCC2(CC2)CC1`
8100

====

Assay protocol: Competitive slurries of Pattern 3 and Pattern 11, XRPD
Assay type: physicochemical
Measurement setup: competitive slurry; solvent and temperature per sample
Measure: XRPD after 17 days

>>> df
                                   compound             result
0  Cc1cc(Nc2cc(N)ncn2)c(=O)n2c1C(=O)NC21CCC2(CC2)CC1 [Pattern 36-8]  Patterns 3 and 11
1  Cc1cc(Nc2cc(N)ncn2)c(=O)n2c1C(=O)NC21CCC2(CC2)CC1 [Pattern 36-3]  Patterns 3 and 11

====

Assay protocol: High temperature solubility assessment
Type: physicochemical
Set-up: key: T = turbid solution; X = suspension
Measurement setup: 50 volumes, 70° C.
Method: Due to low solubility observed in the experiments of Example 2, a second solubility assessment of Structure (I) from Lot A was carried out using higher temperatures closer to the boiling points of the selected solvent systems (Table 10). Once at temperature, phosphoric acid or a base was added to either promote formation of a phosphate or Na/K salt. Structure (I) (from Lot A, Free Form Pattern 1, 30 mg) was weighed into 6 HPLC vials and a stirrer bar added to each one. […]
Measure: observation at 70° C.

>>> print(df.to_string())
                                   compound                measure  result
0  Cc1cc(Nc2cc(N)ncn2)c(=O)n2c1C(=O)NC21CCC2(CC2)CC1 [Pattern 10-2]  observation at 70° C.       X
1  Cc1cc(Nc2cc(N)ncn2)c(=O)n2c1C(=O)NC21CCC2(CC2)CC1 [Pattern 10-6]  observation at 70° C.       T
2  Cc1cc(Nc2cc(N)ncn2)c(=O)n2c1C(=O)NC21CCC2(CC2)CC1 [Pattern 10-7]  observation at 70° C.       T
3  Cc1cc(Nc2cc(N)ncn2)c(=O)n2c1C(=O)NC21CCC2(CC2)CC1 [Pattern 10-8]  observation at 70° C.       T
4  Cc1cc(Nc2cc(N)ncn2)c(=O)n2c1C(=O)NC21CCC2(CC2)CC1 [Pattern 10-3]  observation at 70° C.       X
5  Cc1cc(Nc2cc(N)ncn2)c(=O)n2c1C(=O)NC21CCC2(CC2)CC1 [Pattern 10-1]  observation at 70° C.       X

observation at 70° C. for Cc1cc(Nc2cc(N)ncn2)c(=O)n2c1C(=O)NC21CCC2(CC2)CC1 [Pattern 10-5] ?
X

How about this compound: Cc1cc(Nc2cc(N)ncn2)c(=O)n2c1C(=O)NC21CCC2(CC2)CC1 [Pattern 10-4]
X
